Source of measurements: ChEMBL document CHEMBL2163289

- METHOD NOTES: Oral bioavailability in beagle dog at 10 mg/kg
- Type: ADME, organism-based, Canis lupus familiaris
- PARTICULARS: in vivo
RECORDED METRIC: bioavailability (%)
The figure you give is taken to be in %; do not add the unit.

Per the records, this compound ( CCCNS(=O)(=O)Nc1ncnc(OCCOc2ncc(Br)cn2)c1-c1ccc(Br)cc1 ) has bioavailability equal to 87

---

Measured pIC50 of individual entries
- ASSAYED TARGET: Endothelin-1 receptor (Homo sapiens, UniProt P25101)
- Sequence (P25101 whole entry): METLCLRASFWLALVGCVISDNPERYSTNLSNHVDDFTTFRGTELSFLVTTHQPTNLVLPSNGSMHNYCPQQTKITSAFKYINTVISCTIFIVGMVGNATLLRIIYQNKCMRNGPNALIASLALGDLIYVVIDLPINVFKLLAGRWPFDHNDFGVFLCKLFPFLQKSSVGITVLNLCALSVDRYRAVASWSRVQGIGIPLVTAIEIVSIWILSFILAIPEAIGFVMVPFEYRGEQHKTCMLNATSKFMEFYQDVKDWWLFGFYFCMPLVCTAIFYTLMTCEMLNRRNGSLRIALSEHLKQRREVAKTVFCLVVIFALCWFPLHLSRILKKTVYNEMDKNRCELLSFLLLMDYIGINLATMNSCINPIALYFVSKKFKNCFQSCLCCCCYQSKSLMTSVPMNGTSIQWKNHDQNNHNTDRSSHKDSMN
- METHOD NOTES: Displacement of [I125]ET1 from recombinant ETA receptor expressed in CHO cells after 2 hrs by TopCount analysis
By convention, pIC50 is the negative base-10 log of a molar concentration.

INSERT INTO assay_data (molecular_string, recorded_metric, numeric_value) VALUES
  ('CCCCS(=O)(=O)Nc1nc(-c2ncccn2)nc(OCCOc2ncc(Br)cn2)c1Oc1ccccc1OC', 'pIC50', 8.37),
  ('COc1ccccc1Oc1c(NS(=O)(=O)CCc2ccccc2)nc(-c2ncccn2)nc1OCCOc1ncc(C)cn1', 'pIC50', 7.75),
  ('COc1ccccc1Oc1c(NS(=O)(=O)c2ccc(C(C)(C)C)cc2)nc(-c2ncccn2)nc1OCCOc1ncccn1', 'pIC50', 8.37);

Now take the following compound into account.
Per the records, this compound ( Cc1ccc(-c2c(NS(=O)(=O)NCc3ccccc3)ncnc2OCCOc2ncc(Br)cn2)cc1 ) has pIC50 equal to 9.15

---

- METHOD NOTES: AUC (0 to infinity) in beagle dog at 1 mg/kg, iv
- Format: ADME, organism-based, Canis lupus familiaris
- Design: dose 1 mg/kg, route intravenous, time infinity
- PARTICULARS: plasma
RECORDED METRIC: AUC(0-inf)
# include the unit after the value

Per the records, this compound ( CCCNS(=O)(=O)Nc1ncnc(OCCOc2ncc(Br)cn2)c1-c1ccc(Br)cc1 ) has AUC(0-inf) equal to 3170 ng·h/mL

---

- ASSAYED TARGET: Endothelin-1 receptor (Homo sapiens)
- METHOD NOTES: Displacement of [I125]ET1 from recombinant ETA receptor expressed in CHO cells after 2 hrs by TopCount analysis
Measured pIC50 of individual entries
By convention, pIC50 is the negative base-10 log of a molar concentration.

INSERT INTO assay_data (molecular_string, numeric_value) VALUES
  ('COc1ccccc1Oc1c(NS(=O)(=O)CCCc2ccccc2)nc(-c2ncccn2)nc1OCCOc1ncc(Br)cn1', 8.17),
  ('O=S(=O)(NCc1ccccc1)Nc1ncnc(OCCOc2ncc(Br)cn2)c1-c1ccccc1', 8.17),
  ('COc1ccccc1Oc1c(NS(=O)(=O)N(C)Cc2ccccc2)nc(-c2ncccn2)nc1OCCOc1ncc(Br)cn1', 8.15);

Per the records, this molecule ( COc1ccccc1Oc1c(NS(=O)(=O)CCc2ccccc2)nc(-c2ncccn2)nc1OCCOc1ncccn1 ) has pIC50 equal to 8.10

---

- ASSAYED TARGET: Endothelin-1 receptor (Homo sapiens)
- METHOD NOTES: Displacement of [I125]ET1 from recombinant ETA receptor expressed in CHO cells after 2 hrs by TopCount analysis
RECORDED METRIC: pIC50
By convention, pIC50 is the negative base-10 log of a molar concentration.

Field: example entries. Status: answers known.
INSERT INTO measurements (molecular_string, numeric_value) VALUES
  ('CCNS(=O)(=O)Nc1nc(-c2ncccn2)nc(OCCOc2ncc(Br)cn2)c1Oc1ccccc1OC', 8.00),
  ('CCCS(=O)(=O)Nc1nc(-c2ncccn2)nc(OCCOc2ncc(Br)cn2)c1Oc1ccccc1OC', 8.03),
  ('COc1ccccc1Oc1c(NS(=O)(=O)NCc2ccccc2)ncnc1OCCOc1ncc(Br)cn1', 8.16);

Per the records, this compound ( CNS(=O)(=O)Nc1nc(-c2ncccn2)nc(OCCOc2ncc(Br)cn2)c1Oc1ccccc1OC ) has pIC50 equal to 8.10
